Recorded values, source patent US20240309103A1.

Reported pKd values for the following binders.
# TGT: T1, human NPR1 extracellular domain expressed with a C-terminal myc-myc-hexahistidine (hNPR1-MMH) (human, UniProt P16066 33-473)
# T1 construct: also called hNPR.mmh; monomeric human NPR1
# ASSAY REMARKS: SPR, mAb captured, 25 C
# Protocol: Equilibrium dissociation constant (KD) for different NPR1 reagents binding to purified anti-NPR1 monoclonal antibodies (mAbs) were determined using a real-time surface plasmon resonance based Biacore 4000 biosensor. All binding studies were performed in 10 mM HEPES, 150 mM NaCl, 3 mM EDTA, and 0.05% v/v Surfactant Tween-20, pH 7.4 (HBS-ET) running buffer at 25° C. and 37° C. […]
Please treat pKd as minus the base-10 logarithm of the molar concentration.

Data request, read-out pKd, for mAb22035 (antibody, V domains shown) VH: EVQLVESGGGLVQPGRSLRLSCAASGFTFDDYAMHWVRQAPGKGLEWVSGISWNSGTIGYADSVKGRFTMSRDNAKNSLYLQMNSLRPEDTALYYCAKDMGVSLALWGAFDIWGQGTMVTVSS VL: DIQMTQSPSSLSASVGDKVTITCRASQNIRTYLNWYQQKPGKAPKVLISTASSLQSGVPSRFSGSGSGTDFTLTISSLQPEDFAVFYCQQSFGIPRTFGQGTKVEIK
9.13

Field entry: mAb25491 (antibody, V domains shown) VH: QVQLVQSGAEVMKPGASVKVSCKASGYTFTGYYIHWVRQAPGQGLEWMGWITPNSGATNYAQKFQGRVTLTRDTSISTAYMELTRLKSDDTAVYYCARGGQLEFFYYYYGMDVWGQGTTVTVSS VL: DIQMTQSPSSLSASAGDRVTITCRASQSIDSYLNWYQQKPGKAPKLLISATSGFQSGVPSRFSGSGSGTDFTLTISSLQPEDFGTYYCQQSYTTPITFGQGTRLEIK
7.42

Field entry: mAb25479 (antibody, V domains shown) VH: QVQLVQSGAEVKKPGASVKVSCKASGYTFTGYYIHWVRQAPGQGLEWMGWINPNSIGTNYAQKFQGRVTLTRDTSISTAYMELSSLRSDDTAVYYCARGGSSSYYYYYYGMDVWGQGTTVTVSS VL: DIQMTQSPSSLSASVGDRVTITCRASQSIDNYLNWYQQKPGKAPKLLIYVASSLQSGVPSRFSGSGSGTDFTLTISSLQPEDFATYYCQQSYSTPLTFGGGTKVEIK
6.32

Field entry: mAb25508 (antibody, V domains shown) VH: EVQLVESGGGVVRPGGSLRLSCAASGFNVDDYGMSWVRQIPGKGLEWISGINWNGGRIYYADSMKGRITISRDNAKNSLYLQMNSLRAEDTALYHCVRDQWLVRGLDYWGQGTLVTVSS VL: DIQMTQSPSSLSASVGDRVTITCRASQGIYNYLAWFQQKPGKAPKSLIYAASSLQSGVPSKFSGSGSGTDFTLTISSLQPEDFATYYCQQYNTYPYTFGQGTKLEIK
9.51

Field entry: mAb25497 (antibody, V domains shown) VH: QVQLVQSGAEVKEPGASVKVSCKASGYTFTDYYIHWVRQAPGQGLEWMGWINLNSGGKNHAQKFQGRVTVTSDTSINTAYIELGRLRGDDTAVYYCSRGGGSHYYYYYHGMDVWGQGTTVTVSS VL: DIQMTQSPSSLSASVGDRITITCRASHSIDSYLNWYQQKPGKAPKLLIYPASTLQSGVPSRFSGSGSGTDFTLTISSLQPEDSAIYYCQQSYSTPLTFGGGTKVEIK
7.28

Proceed to the following item.
Data request, read-out pKd, for mAb22033 (antibody, V domains shown) VH: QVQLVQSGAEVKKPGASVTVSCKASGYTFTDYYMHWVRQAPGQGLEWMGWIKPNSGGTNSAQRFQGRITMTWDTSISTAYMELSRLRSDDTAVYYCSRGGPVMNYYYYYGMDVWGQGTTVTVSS VL: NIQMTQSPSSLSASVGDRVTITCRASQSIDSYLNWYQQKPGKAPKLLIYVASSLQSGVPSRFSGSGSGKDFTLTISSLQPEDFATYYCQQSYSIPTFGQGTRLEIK
7.32
